assay: Plasma clearance in dog at 0.90 mg/kg, iv; type: ADME, organism-based, Canis lupus familiaris; parameters: dose 0.9 mg/kg, route intravenous; details: 0.9 mg/kg
Recorded metric: clearance (mL/min/kg)
Your answer should be a plain number; it is taken to be in mL/min/kg.

Q: What value of measured clearance is listed for "C[C@H]1CN(c2ccc(C(=O)Nc3ccccc3N)cn2)CCN1C(=O)OCc1ccccc1" ?
Ans: 7.4

====

experiment: Half life in dog at 0.50 mg/kg, iv; type: ADME, organism-based, Canis lupus familiaris; set-up: dose 0.5 mg/kg, route intravenous; conditions: in vivo, 0.5 mg/kg
half-life: recorded values
Answer with the value and then the unit.

INSERT INTO measurements (smiles_string, result) VALUES
  ('Nc1ccc(-c2cccs2)cc1NC(=O)c1ccc(N2CCC3(CCNC3)CC2)nc1', '402 min');

Now look at this one.
Q: Recorded half-life of "Nc1ccc(-c2cccs2)cc1NC(=O)c1ccc(N2CCC3(CC2)COC(=O)N3)nc1" , please.
Ans: 408 min

====

experiment: Volume of distribution at steady state in rat at 2.0 mg/kg, iv; format: ADME, organism-based; parameters: dose 2 mg/kg, route intravenous; settings: in vivo, read-out: Vdss
Recorded Vd for the following compounds
Numeric only. Scale: L/kg

INSERT INTO results (smiles_string, result) VALUES
  ('Nc1ccc(-c2cccs2)cc1NC(=O)c1ccc(N2CCC3(CCNC3)CC2)nc1', 8.6);

Now let's try a different one.
Q: Please give the measured Vd for this compound: "Nc1ccc(-c2cccs2)cc1NC(=O)c1ccc(N2CCC3(CC2)COC(=O)N3)nc1"
Ans: 0.47

====

assay: Cmax in mouse at 150 mg/kg, po; format: ADME, organism-based; design: dose 150 mg/kg, route oral; conditions: in vivo
Entries and their Cmax
Form entry: value (µM) — number only.

INSERT INTO measurements (smiles_string, result) VALUES
  ('Nc1ccc(-c2cccs2)cc1NC(=O)c1ccc(N2CCC3(CC2)CNC(=O)N3)nc1', 2),
  ('Nc1ccc(-c2cccs2)cc1NC(=O)c1ccc(N2CCC3(CC2)COC(=O)N3)nc1', 6);

Shift focus to the following entry.
Q: Record request: Cmax value, item "Nc1ccc(-c2cccs2)cc1NC(=O)c1ccc(N2CCC3(CCNC3=O)CC2)nc1"
Ans: 34

====

assay: Plasma clearance in rat at 2.0 mg/kg, iv; format: ADME, organism-based; design: dose 2 mg/kg, route intravenous
The following molecules are listed with their measured clearance values.
Give just the numeric value; mL/min/kg need not be written.

INSERT INTO results (smiles_string, recorded_metric, unit_string, result) VALUES
  ('Nc1ccc(-c2cccs2)cc1NC(=O)c1ccc(N2CCC3(CCNC3)CC2)nc1', 'clearance', 'mL/min/kg', 31);

Q: Requested read-out: clearance. Entry: "Nc1ccc(-c2cccs2)cc1NC(=O)c1ccc(N2CCC3(CC2)COC(=O)N3)nc1"
Ans: 7.4

====

test: Plasma concentration in human HCT116 cells xenografted CD1 mouse at 15 mg/kg, ip after 6 hrs; type: ADME, organism-based, HCT-116; set-up: dose 15 mg/kg, route intraperitoneal
Recorded metric: concentration at 6 h (µM)
Answer with a number only, understood to be in µM.

Q: Name the reported concentration at 6 h value associated with the compound "Nc1ccc(-c2cccs2)cc1NC(=O)c1ccc(N2CCC3(CCNC3)CC2)nc1"
Ans: 3.4
